Hello, the source for this data is patent US20150306086A1, in case you need it.

Assayed System: RET(G691S) (Homo sapiens, UniProt P07949, G691S)
Measurement Protocol: Off-chip mobility shift kinase assay, RET [G691S]
Recorded Conditions: CSKtide 1000 nM, ATP 10 μM, Mg 5 mM
Assignment: determine reported IC50 for the given molecules.

Entry CC(C)NC(=O)[C@H]1CC[C@@H](n2/c(=N/C(=O)c3ccc(F)cc3)[nH]c3ccc(CN4CCC(C(C)(C)O)CC4)cc32)CC1 [I-a] — recorded IC50 = 0.001 to 0.1 µM

Entry CC(C)NC(=O)[C@H]1CC[C@@H](n2/c(=N/C(=O)c3cc(F)cc(F)c3)[nH]c3ccc(CN4CCC(C(C)(C)O)CC4)cc32)CC1 [I-b] — recorded IC50 = > 1 µM

---

Assayed System: FLT4 (Homo sapiens, UniProt P35916)
pIC50: −log10 of the molar value.
Result Type: pIC50

Entry CC(C)NC(=O)[C@H]1CC[C@@H](n2/c(=N/C(=O)c3cc(F)cc(F)c3)[nH]c3ccc(CN4CCC(C(C)(C)O)CC4)cc32)CC1 — recorded pIC50 = < 6.00
